# PROTOCOL_DETAILS: Cell viability (MTT) run in parallel with the HaCaT-based SRD5A1 inhibitory assay
# Design: species or system human
# CONDITION_DESCRIPTION: human, % Cell viability ± SD
REPORTED_METRIC: viability at 24 h, 20 µM
Just the number plus its unit, please.

Data request: Query (compound): O=C(O)C=Cc1ccc(O)c(O)c1 [Compound 1, 3,4-dihydroxycinnamic acid] ; field requested: viability at 24 h, 20 µM
Data returned: 86%

----------
# PROTOCOL_DETAILS: Cell viability (MTT) run in parallel with the HaCaT-based SRD5A1 inhibitory assay
# Parameters: species or system human
# CONDITION_DESCRIPTION: human, HaCaT cells, 2.5 µM, positive control, HaCaT, 24 h; read-out: % Cell viability ± SD
REPORTED_METRIC: viability at 24 h, 2.5 µM (%)
Return type: number; implicit unit %.

Data request: Query (compound): C[C@]12C=CC(=O)N[C@@H]1CC[C@@H]1[C@@H]2CC[C@]2(C)[C@@H](C(=O)Nc3cc(C(F)(F)F)ccc3C(F)(F)F)CC[C@@H]12 [Dutasteride, reference compound] ; field requested: viability at 24 h, 2.5 µM
Data returned: 88.1
